Test system: NCI/ADR-RES
Assay: NCI tumour cell line growth inhibition, 48 h
The source made the active and inactive calls. No stated cut-off is given here; in the data, active = GI50 up to about 1.1 µM and inactive = higher.
Parameter: GI50

Measured GI50 for this entry COc1cc(OCc2ccc3oc(=O)c(-c4ccccc4)nc3c2)cc(OC)c1OC on NCI/ADR-RES: > 100 µM (inactive)

Measured GI50 for this entry O=C(O)CCCn1nnc2c(=O)[nH][nH]c(=O)c21 on NCI/ADR-RES: > 100 µM (inactive)

Measured GI50 for this entry Cc1cc2cc3c(Cl)c(CCCl)c(C)nc3cc2c(Cl)c1CCCl on NCI/ADR-RES: 22.9 µM (inactive)

Measured GI50 for this entry CCOC(=O)c1[nH]cc(C)c1-c1ccc2c(-c3ccccc3)nc3ccccc3n12 on NCI/ADR-RES: 2.51 µM (inactive)

Continuing:
Measured GI50 for this entry C=CCON(C(=O)OC(C)(C)C)C(C)(C)C on NCI/ADR-RES: > 100 µM (inactive)

Measured GI50 for this entry CCc1n[nH]c(=O)n1-n1c(C)ccc1C on NCI/ADR-RES: > 100 µM (inactive)

Measured GI50 for this entry CCCSc1cc(Cl)c(C)cc1S(=O)(=O)n1ccnc1O on NCI/ADR-RES: > 100 µM (inactive)

The reported numbers originate from ChEMBL document CHEMBL1201862.
